- target-entity: T1, RRM3Mei2 (Schizosaccharomyces pombe, UniProt P08965 579-750)
- T1 sequence: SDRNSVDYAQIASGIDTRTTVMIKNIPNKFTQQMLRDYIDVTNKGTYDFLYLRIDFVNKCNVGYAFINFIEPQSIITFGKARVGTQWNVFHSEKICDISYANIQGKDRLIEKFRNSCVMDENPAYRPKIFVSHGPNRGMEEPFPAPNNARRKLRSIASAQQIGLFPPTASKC
- procedure-text: ITC; ITC: 20 mM Tris-HCl pH 7.5, 200 mM NaCl, 5 mM 2-mercaptoethanol, 20 °C; N fixed to 1
- condition-details: protein: recombinant; tags: GST-tag removed by 3C protease
measurement-label: Kd (nM)
Answers are plain numbers, in nM.

Solved cases (3 shown):
UUUUUUUUUUUUUUU (ssRNA) [poly-U15] = 1430
GCUUUUUGUUCG (ssRNA) [GCUUUUUGUUCG 12-mer] = 555
UUUUUUGGUUUUUUU (ssRNA) [U6GGU7] = 435

**Q:** Which Kd is reported for this binder? UUUUUUUGUUUUUUU (ssRNA) [U7GU7]
**A:** 145
